Target: hLTBP3-proTGFβ1 as produced in the cell-based activation assay (human, UniProt P01137 30-390; Q9NS15 44-1303)
Sequence (P01137 30-390 limits assumed, chain 1 of 2): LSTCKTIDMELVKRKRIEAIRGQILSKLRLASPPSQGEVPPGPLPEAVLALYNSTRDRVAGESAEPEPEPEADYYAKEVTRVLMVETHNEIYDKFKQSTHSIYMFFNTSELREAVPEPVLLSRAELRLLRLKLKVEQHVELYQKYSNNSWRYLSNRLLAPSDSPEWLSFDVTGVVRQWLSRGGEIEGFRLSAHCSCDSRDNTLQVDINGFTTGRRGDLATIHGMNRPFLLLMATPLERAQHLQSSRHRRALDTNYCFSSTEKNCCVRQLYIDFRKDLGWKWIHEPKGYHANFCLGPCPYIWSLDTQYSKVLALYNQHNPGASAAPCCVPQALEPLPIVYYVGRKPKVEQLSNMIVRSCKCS
Sequence (Q9NS15 44-1303 limits assumed, chain 2 of 2): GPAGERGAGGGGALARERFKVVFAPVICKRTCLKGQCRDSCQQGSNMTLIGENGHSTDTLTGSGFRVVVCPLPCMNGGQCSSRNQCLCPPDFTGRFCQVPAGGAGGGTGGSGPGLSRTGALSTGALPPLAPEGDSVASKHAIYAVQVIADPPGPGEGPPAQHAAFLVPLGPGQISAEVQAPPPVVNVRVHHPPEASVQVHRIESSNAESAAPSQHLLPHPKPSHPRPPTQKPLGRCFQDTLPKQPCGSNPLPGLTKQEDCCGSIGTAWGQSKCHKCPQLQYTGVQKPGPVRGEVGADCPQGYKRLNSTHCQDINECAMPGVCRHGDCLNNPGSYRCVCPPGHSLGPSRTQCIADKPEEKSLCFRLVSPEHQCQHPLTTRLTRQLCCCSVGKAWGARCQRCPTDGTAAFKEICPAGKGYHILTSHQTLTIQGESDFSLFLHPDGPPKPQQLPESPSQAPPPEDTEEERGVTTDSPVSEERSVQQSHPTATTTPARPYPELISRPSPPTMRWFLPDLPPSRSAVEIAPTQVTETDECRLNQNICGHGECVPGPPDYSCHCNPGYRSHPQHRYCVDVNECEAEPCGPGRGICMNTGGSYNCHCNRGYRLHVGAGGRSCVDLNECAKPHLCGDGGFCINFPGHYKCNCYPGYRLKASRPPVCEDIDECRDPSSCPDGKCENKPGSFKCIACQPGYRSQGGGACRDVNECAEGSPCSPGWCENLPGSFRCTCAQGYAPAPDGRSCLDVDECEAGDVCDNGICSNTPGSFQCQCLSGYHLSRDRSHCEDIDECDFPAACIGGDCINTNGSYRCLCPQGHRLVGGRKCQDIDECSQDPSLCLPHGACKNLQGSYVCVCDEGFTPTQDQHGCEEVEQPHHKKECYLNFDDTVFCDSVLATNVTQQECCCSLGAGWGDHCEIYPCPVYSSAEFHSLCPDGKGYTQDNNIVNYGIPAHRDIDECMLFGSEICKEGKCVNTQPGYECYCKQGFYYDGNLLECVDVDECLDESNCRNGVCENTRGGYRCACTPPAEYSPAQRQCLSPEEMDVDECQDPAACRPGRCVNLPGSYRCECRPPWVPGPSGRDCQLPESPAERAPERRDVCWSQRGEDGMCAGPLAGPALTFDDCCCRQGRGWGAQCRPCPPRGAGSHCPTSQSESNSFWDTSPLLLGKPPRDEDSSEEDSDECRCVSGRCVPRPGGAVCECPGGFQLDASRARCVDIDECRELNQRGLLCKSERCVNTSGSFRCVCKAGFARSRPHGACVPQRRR
Assay: cell-based or functional assay
For each entry below, report its IC50, reporter cell assay value.
// units = nM; emit number, no label

Looking up Ab33 (antibody, IgG4, V domains shown) VH: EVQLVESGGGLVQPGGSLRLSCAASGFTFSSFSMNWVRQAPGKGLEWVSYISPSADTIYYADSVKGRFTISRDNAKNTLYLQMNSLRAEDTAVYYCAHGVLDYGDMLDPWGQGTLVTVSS VL: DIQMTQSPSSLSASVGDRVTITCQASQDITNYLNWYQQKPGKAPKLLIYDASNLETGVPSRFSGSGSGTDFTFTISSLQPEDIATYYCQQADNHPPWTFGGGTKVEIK , I found its IC50, reporter cell assay recorded as 1.11

Looking up Ab4 (antibody, IgG4, V domains shown, parent of Ab6) VH: EVQLVESGGGLVQPGGSLRLSCAASGFTFSSYSMNWVRQAPGKGLEWVSYISSSSSTIYYADSVKGRFTISRDNAKNSLYLQMNSLRAEDTAVYYCARGVLDYGDMLDPWGQGTLVTVSS VL: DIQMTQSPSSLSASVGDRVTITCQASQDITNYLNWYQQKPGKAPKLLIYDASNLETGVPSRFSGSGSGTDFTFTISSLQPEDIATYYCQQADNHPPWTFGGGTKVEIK , I found its IC50, reporter cell assay recorded as 5.65

Looking up Ab26 (antibody, IgG4, V domains shown) VH: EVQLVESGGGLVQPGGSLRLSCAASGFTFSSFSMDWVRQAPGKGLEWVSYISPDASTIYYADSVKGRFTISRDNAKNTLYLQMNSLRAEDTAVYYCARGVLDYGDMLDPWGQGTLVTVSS VL: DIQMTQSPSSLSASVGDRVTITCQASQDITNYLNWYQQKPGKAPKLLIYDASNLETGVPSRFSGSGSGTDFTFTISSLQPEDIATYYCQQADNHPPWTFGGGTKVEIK , I found its IC50, reporter cell assay recorded as 0.716
